assay: Primary qHTS to identify inhibitors of SARS-CoV-2 cell entry (AID 1645846); settings: SARS-CoV-2 pseudovirus cell entry assay, luminescence; at 57.1 µM (top of the series) unless noted; also: nearly all actives have a fitted effect of over 45% in size
Results filed as inconclusive are left out.
assay endpoint: activity change, negative = inhibition (% [at 27.1 µM])
Kindly provide the numeric value in % [at 27.1 µM] only, without the unit symbol.

Param item = CC(C)=CCC[C@](C)(O[C@@H]1O[C@H](CO[C@@H]2O[C@H](CO)[C@@H](O)[C@H](O)[C@H]2O)[C@@H](O)[C@H](O)[C@H]1O)[C@H]1CC[C@]2(C)[C@@H]1[C@H](O)C[C@@H]1[C@@]3(C)CC[C@H](O[C@@H]4O[C@H](CO)[C@@H](O)[C@H](O)[C@H]4O[C@@H]4O[C@H](CO)[C@@H](O)[C@H](O)[C@H]4O)C(C)(C)[C@@H]3CC[C@]12C ; retrieve measured activity change, negative = inhibition.
-3.97

activity change, negative = inhibition for N=C1S/C(=C\c2ccc(-c3ccc4c(c3)C(=O)NC4=O)o2)C(=O)N1c1ccc(Br)cc1 ?
-8.86

* * *

molecular target: Rap guanine nucleotide exchange factor 3 (Homo sapiens) (UniProt O95398); assay: Confirmatory qHTS for agonist of cAMP-regulated guanine nucleotide exchange factor 3 (EPAC1) (AID 1645881); conditions: EPAC1 Rap1B BODIPY-GDP exchange fluorescence; series mostly up to 154 µM; also: nearly all actives have a fitted effect of over 75% in size;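 as to activation: EPAC1 catalysed release of BODIPY-GDP from Rap1B seen as fluorescence loss; 100% = effect of cAMP agonist control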
Sequence (O95398 whole entry, looked up): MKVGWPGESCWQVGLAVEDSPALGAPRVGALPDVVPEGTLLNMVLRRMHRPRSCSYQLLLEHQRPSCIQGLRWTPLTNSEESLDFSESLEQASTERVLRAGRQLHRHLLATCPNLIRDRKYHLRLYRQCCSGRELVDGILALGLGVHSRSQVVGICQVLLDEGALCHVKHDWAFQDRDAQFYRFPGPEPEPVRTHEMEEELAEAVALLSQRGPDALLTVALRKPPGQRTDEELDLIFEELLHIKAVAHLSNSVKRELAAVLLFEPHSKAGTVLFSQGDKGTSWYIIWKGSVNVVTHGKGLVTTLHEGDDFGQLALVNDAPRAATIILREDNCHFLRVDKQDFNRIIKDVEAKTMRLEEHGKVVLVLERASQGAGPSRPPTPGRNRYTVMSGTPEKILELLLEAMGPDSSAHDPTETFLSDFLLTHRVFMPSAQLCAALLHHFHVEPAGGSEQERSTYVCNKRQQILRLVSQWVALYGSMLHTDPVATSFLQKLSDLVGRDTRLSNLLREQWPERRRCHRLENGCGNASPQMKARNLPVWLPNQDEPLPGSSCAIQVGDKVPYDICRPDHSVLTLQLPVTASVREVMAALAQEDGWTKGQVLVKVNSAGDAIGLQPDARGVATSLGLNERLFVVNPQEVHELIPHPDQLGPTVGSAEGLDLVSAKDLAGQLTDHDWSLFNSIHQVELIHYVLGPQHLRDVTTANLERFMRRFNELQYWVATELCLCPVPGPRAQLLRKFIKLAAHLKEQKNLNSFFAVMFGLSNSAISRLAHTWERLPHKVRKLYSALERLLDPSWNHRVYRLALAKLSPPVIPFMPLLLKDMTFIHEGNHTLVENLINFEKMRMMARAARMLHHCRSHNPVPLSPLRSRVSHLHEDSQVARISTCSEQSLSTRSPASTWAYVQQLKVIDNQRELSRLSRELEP
Inconclusive results are not listed. Calls of active or inactive are those of the source. The call rests on the fitted dose curve; in most records, active means well fitted activation curve with a large enough effect; inconclusive means small, poorly fitted or top-dose-only effect; inactive means no such curve, though single readings can be large or run the other way.
Use one of these outcomes when replying: True = active, False = inactive

# lookup: test call for O=C1NC(=O)N(Cc2ccccc2)C(=O)/C1=C\c1ccco1
False

Recorded test outcome, item COC(=O)C1=C(c2ccc3ccccc3c2)C[C@@H]2CC[C@H]1N2C(=O)NC1CC1
False

Assay result, entry CCN(CC)c1ccc(N=Cc2c(O)n(CCC3=CCCCC3)c(=O)[nH]c2=O)cc1 — outcome?
False

Name the outcome recorded for CC(C)C/C(=N/O)c1cn(C)c2ccccc12 in the assay.
False

GET /call?item= Cc1cccc(C)c1-n1nnnc1C(c1ccccc1OC(F)(F)F)N1CCC(n2c(=O)[nH]c3ccccc32)CC1 (centres undefined) returns the recorded outcome of this test.
False

Lab log entry: CCOC(=O)[C@]12Cc3cc(OC)ccc3[C@H]1N(Cc1ccccc1)C(=O)c1ccccc12 — outcome as called in the assay?
False

What call does the record list for Cc1ccc(-n2c(O)c(/C=C/C=Nc3ccccc3)c(=O)[nH]c2=O)cc1 ?
False

GET /call?item= O=[N+]([O-])c1ccc(NCc2ccccc2)c2nonc12 returns the recorded outcome of this test.
True

What did this assay record as the result for COc1ccc(-n2c(O)c(/C=C/C=Nc3ccccc3)c(=O)[nH]c2=O)cc1 ?
True

* * *

assay: qHTS assay for environmental chemicals that activate the Aryl hydrocarbon Receptor (AhR) signaling pathway (AID 651777); conditions: 1A2-DRE human hepatoma cells, luciferase, 24 h; stronger effect = higher value; also: % of control where 0% means no effect; nearly all actives have a fitted effect of over 15% in size
Results filed as inconclusive are left out.
assay endpoint: activation (%)
Note: unit % is implicit; provide only the numeric part.

// activation lookup, key: CNC(=O)Oc1ccccc1OC(C)C
-1.13

For c1nc[nH]n1 , what is its reported activation?
-0.221

// returns reported activation for input C#CCOS(=O)OC1CCCCC1Oc1ccc(C(C)(C)C)cc1 (stereo not drawn)
0.168

Param item = O=C(Cl)/C=C/C(=O)Cl ; retrieve measured activation.
-0.935

Looking for the measured activation of CCCCCCCC(=O)Cl , can you help?
-0.601

Sample C=C(C)C(=O)OCC1CO1 (stereo not drawn) — what was its activation?
0.578

What does the record list as activation for C=CCc1ccc(OC)cc1 ?
0.798

// returns reported activation for input COc1nc(NC(C)C)nc(NC(C)C)n1
-1.56

Ref: PubChem BioAssay (NCATS)
